The measurements presented in this section are drawn from patent US6300501A.

IC50 for assorted compounds
Target: SF9 affinity purified rat farnesyl protein transferase (Rattus norvegicus, UniProt Q02293+Q04631)
Construct: made in house; host or cells: Sf9 insect cells (baculovirus system inferred from b7)
Assay: PFT inhibitory activity (radiolabeled farnesyl pyrophosphate, streptavidin bead assay)
Type: biochemical
Settings: HEPES buffer pH 7.4, without 5 mM potassium phosphate; read-out: IC50 (μM) Hepes
Give the quantity in µM, number only.

{"columns": ["compound", "result.type", "display.unit", "result.value"],
 "data": [
  ["CC(CNC(=O)CN(Cc1cccc(Cl)c1)C(=O)[C@H](Cc1c[nH]cn1)NC(=O)OCc1ccccc1)c1ccccc1 (stereo partly drawn)", "IC50", "µM", 0.78],
  ["CC(CNC(=O)CN(Cc1ccc(OCc2ccccc2)cc1)C(=O)[C@H](Cc1c[nH]cn1)NC(=O)NCc1ccccc1)c1ccccc1 (stereo partly drawn) [Example 26]", "IC50", "µM", 0.15],
  ["CC(CNC(=O)CN(Cc1ccc(C(F)(F)F)cc1)C(=O)[C@H](Cc1c[nH]cn1)NC(=O)OCc1ccccc1)c1ccccc1 (stereo partly drawn)", "IC50", "µM", 1.6],
  ["C[C@H](Cc1ccccc1)NC(=O)CN(Cc1ccc(OCc2ccccc2)cc1)C(=O)[C@H](Cc1c[nH]cn1)NC(=O)OCc1ccccc1", "IC50", "µM", 0.58],
  ["O=C(CN(Cc1ccc(OCc2ccccc2)cc1)C(=O)[C@H](Cc1c[nH]cn1)NC(=O)OCc1ccccc1)NCCOCc1ccccc1", "IC50", "µM", 7.7]
]}

Next, consider the following compound.
Data request: Entry CCC(CNC(=O)CN(Cc1ccc(OCc2ccccc2)cc1)C(=O)[C@H](Cc1c[nH]cn1)NC(=O)OCc1ccccc1)c1ccccc1 (stereo partly drawn) : reported IC50 = ?
Data returned: 0.29
